The origin of these recorded values is patent US8796256B2.

subjectOfTest: ERR1 (also known as ERR-α or ERR-1) (Homo sapiens)
Sequence (P11474 193-421 limits assumed, species assumed): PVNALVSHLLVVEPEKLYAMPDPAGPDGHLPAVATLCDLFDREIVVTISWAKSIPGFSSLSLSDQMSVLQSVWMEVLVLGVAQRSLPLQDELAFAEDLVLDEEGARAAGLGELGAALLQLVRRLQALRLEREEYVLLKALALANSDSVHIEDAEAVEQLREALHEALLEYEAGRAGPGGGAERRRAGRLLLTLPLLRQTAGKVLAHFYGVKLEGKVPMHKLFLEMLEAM
testDetails: TR-FRET assay (disruption of co-activator peptide binding to ERR1 LBD)
Assay type: biochemical
details: 6 nM 6His-ERR1LBD, 6 nM GST-SRC-2 peptide; average of 3 independent experiments
propertyName: pEC50
// pEC50 here means minus log10 of the molar concentration (mol/L)

[Q] Please report the recorded pEC50 for O=C(CN1C(=O)S/C(=C\c2ccc3c(c2)c(Cl)nn3Cc2ccc(Cl)cc2C(F)(F)F)C1=O)NS(=O)(=O)N1CCCC1 .
[A] 7.15

[Q] Please report the recorded pEC50 for O=C1S/C(=C\c2ccc3c(cnn3Cc3ccc(Cl)cc3C(F)(F)F)c2)C(=O)N1CCC1CCNCC1 .
[A] 7.33

[Q] Please report the recorded pEC50 for N[C@@H](CN1C(=O)S/C(=C\c2ccc3c(cnn3Cc3ccc(Cl)cc3C(F)(F)F)c2)C1=O)C1CCCCC1 .
[A] 6.58

[Q] Please report the recorded pEC50 for CCN1CCC(N2C(=O)S/C(=C\c3ccc4c(cnn4Cc4ccc(Cl)cc4C(F)(F)F)c3)C2=O)CC1 .
[A] 7.60

[Q] Please report the recorded pEC50 for O=C1S/C(=C\c2ccc3c(cnn3Cc3ccc(Cl)cc3C(F)(F)F)c2)C(=O)N1C[C@@H]1CN2CCOC[C@H]2CO1 .
[A] 7.66

Below: the item to evaluate.
[Q] Please report the recorded pEC50 for COc1ccc(Cn2ncc3cc(/C=C4\SC(=O)N(CCCN(C)C)C4=O)ccc32)c(C(F)(F)F)c1 .
[A] 8.10
